The reported measurements were obtained from the supplement of paper PMC10307832.

Listed here: items and their measured relative viability.
Tested on: SK-LU-1
Assay: relative viability (nuclei count vs DMSO), 5 days (fraction); higher = more cells survive
Conditions: first compound 0.253 µM
Give only the figure.

C=C1C(=O)O[C@@H](CCCCCCCC)[C@@H]1C(=O)O [C-75] + CCNC(=O)c1noc(-c2cc(C(C)C)c(O)cc2O)c1-c1ccc(CN2CCOCC2)cc1 [Luminespib] (partner 0.01 µM)	0.191
C=C1C(=O)O[C@@H](CCCCCCCC)[C@@H]1C(=O)O [C-75] + Cc1nc(NC(=O)N2CCC[C@H]2C(N)=O)sc1-c1ccnc(C(C)(C)C(F)(F)F)c1 [Alpelisib] (partner 2 µM)	1.23
C=C1C(=O)O[C@@H](CCCCCCCC)[C@@H]1C(=O)O [C-75] + CC(C)C[C@H](NC(=O)[C@H](Cc1ccccc1)NC(=O)c1cnccn1)B(O)O [Bortezomib] (partner 0.002 µM)	1.11
Oc1nc(-c2ccc(C(F)(F)F)cc2)nc2c1CSCC2 [XAV939] + Cc1cc(Nc2cc(N3CCN(C)CC3)nc(Sc3ccc(NC(=O)C4CC4)cc3)n2)n[nH]1 [Tozasertib] (partner 0.1 µM)	0.267

*Q* Which relative viability value belongs to C=C1C(=O)O[C@@H](CCCCCCCC)[C@@H]1C(=O)O [C-75] + Cc1nc(Nc2ncc(C(=O)Nc3c(C)cccc3Cl)s2)cc(N2CCN(CCO)CC2)n1 [Dasatinib] (partner 0.075 µM) ?
*A* 0.175
